- Assay type: in vivo, human
- Reported Conditions: human, blood, iv, 100 µg
Quantity Measured: Vd (L)
Please state the figure in L; there is no need to write the unit.

Fill blank: measured Vd of the compound C=CC(=O)N(C)CCOc1c(N)ncnc1-c1cc(F)cc(NC(=O)c2ccc(C3CC3)cc2F)c1C [remibrutinib] is ____.
63.1

* * *

- Assay type: in vivo, human
- Reported Conditions: human, whole blood, po, 50 mg, Tmax, minimum-maximum, remibrutinib alone
Quantity Measured: Tmax

Fill blank: measured Tmax of the compound C=CC(=O)N(C)CCOc1c(N)ncnc1-c1cc(F)cc(NC(=O)c2ccc(C3CC3)cc2F)c1C is ____.
0.5 to 2.5 h
